- MEASURED_ON: SIRT1 (Homo sapiens, UniProt Q96EB6)
- RUN_DESCRIPTION: TAMRA based mass spectrometry assay of SIRT1 activity
- Format: biochemical
- TEST_PARAMETERS: TAMRA assay; percent maximum fold activation; read-out: TAMRA % Fold Act
MEASUREMENT_LABEL: Emax

Before answering, review these 3 worked examples.
{"COMPOUND": "O=C(Nc1cnn2ccc(-c3ccccc3C(F)(F)F)nc12)c1cc(O)ncn1", "OBSERVED_VALUE": "≥ 350%"}
{"COMPOUND": "O=C(Nc1cnccn1)c1cnn2ccc(-c3ccccc3C(F)(F)F)nc12", "OBSERVED_VALUE": "≥ 350%"}
{"COMPOUND": "Cc1cc(NC(=O)c2c(O)nc3ccc(-c4ccccc4C(F)(F)F)nn23)cc(C)n1", "OBSERVED_VALUE": "< 350%"}

q: Tell me Emax reported for COc1cccc(NC(=O)c2cnc3ccc(-c4ccccc4Cl)nn23)n1
a: < 350%

q: Tell me Emax reported for Cc1nc2ccc(-c3ccccc3C(F)(F)F)nn2c1NC(=O)c1cccc(OCC(O)CO)n1 (stereo not shown)
a: < 350%

q: Please report Emax for the following compound: O=C(Nc1cccc(N2CCOCC2)n1)c1cnc2ccc(-c3cccc(OCC(O)CO)c3)nn12 (stereo not shown)
a: ≥ 350%

q: Determine from records and report Emax for Cc1ccc(C(=O)Nc2cnc3ccc(-c4ccccc4C(F)(F)F)nn23)c(C)n1
a: < 350%

q: Give reported Emax value for Cc1cccnc1NC(=O)c1cnn2ccc(-c3ccccc3OC(F)(F)F)nc12
a: < 350%

q: Provide Emax value for the following compound: Cc1nccc(NC(=O)c2cnn3ccc(-c4ccccc4OC(F)(F)F)nc23)c1C
a: < 350%

q: Return reported Emax. Input compound: O=C(Nc1ccncc1F)c1cnc2ccc(-c3ccccc3OC(F)(F)F)nn12
a: ≥ 350%

###

- MEASURED_ON: SIRT1 (Homo sapiens, UniProt Q96EB6)
- RUN_DESCRIPTION: Trp mass spectrometry assay of SIRT1 activity
- Type: biochemical
- TEST_PARAMETERS: Trp assay; percent maximum fold activation; read-out: Trp % Fold Act
We begin with a simple list: items and their reported Emax.

# example entries with known answers
{"MOLECULE": "Cc1c(-c2ccccc2C(F)(F)F)nn2c(C(=O)Nc3cccc(OC[C@H](O)CO)n3)cnc2c1C", "Emax": "≥ 350%"}
{"MOLECULE": "Cc1nc2ccc(-c3ccccc3C(F)(F)F)nn2c1NC(=O)c1ccncn1", "Emax": "< 350%"}
{"MOLECULE": "Cc1nn2ccc(-c3ccccc3C(F)(F)F)nc2c1C(=O)Nc1ccnc(O)c1", "Emax": "≥ 350%"}
{"MOLECULE": "COCCOc1nccc(NC(=O)c2cnc3ccc(-c4ccccc4C(F)(F)F)nn23)n1", "Emax": "≥ 350%"}
{"MOLECULE": "Cc1cc(NC(=O)c2cnc3ccc(-c4ccccc4OC[C@H](O)CO)nn23)nc(C)n1", "Emax": "< 350%"}
{"MOLECULE": "O=C(Nc1ccccn1)c1cnc2ccc(-c3cccc(OC[C@H](O)CO)c3)nn12", "Emax": "≥ 350%"}
{"MOLECULE": "O=C(Nc1ccncc1F)c1cnc2ccc(N3CCCC(C(F)(F)F)C3)nn12 (centres unmarked)", "Emax": "≥ 350%"}
{"MOLECULE": "O=C(Nc1ccc(F)cn1)c1cnc2ccc(N3CCC[C@H](F)C3)nn12", "Emax": "≥ 350%"}

q: Quickly give me recorded Emax for Cc1nc2ccc(-c3ccccc3C(F)(F)F)nn2c1NC(=O)c1nccs1
a: < 350%

q: Find the measured Emax of O=C(Nc1cnn2ccc(-c3ccccc3OC(F)(F)F)nc12)c1cc(O)ncn1 and report it.
a: < 350%

q: Using known records, supply Emax for CCOc1nccc(NC(=O)c2cnc3ccc(-c4ccccc4C(F)(F)F)nn23)n1
a: ≥ 350%

q: For the molecule O=C(Nc1ccnc(O)c1)c1cnn2ccc(-c3ccccc3OC(F)(F)F)nc12 , give its reported Emax.
a: ≥ 350%

q: Given the molecule Cc1cnc(C(=O)Nc2cnc3ccc(-c4ccccc4OC(F)(F)F)nn23)s1 , write its reported Emax.
a: < 350%

q: Identify Emax associated with the molecule Cc1cc2ncc(C(=O)Nc3cccnc3)n2nc1-c1ccccc1C(F)(F)F
a: ≥ 350%

###

- MEASURED_ON: SIRT1 (Homo sapiens, UniProt Q96EB6)
- RUN_DESCRIPTION: TAMRA based mass spectrometry assay of SIRT1 activity
- Type: biochemical
- TEST_PARAMETERS: concentration of test compound giving 150% activation of SIRT1; TAMRA peptide substrate
MEASUREMENT_LABEL: TAMRA EC1.5 (μM)

{"MOLECULE": "O=C(Nc1cnc2ccc(-c3ccccc3C(F)(F)F)nn12)c1cccc(CN2CCCC2)n1 [Compound 145]", "MEASUREMENT_LABEL": "TAMRA EC1.5 (μM)", "OBSERVED_VALUE": "A (EC1.5<1 μM)"}
{"MOLECULE": "O=C(Nc1ccnc(N2CCCC2)c1)c1cnc2ccc(-c3ccccc3C(F)F)nn12 [Compound 40]", "MEASUREMENT_LABEL": "TAMRA EC1.5 (μM)", "OBSERVED_VALUE": "A (EC1.5<1 μM)"}

###

- MEASURED_ON: UniProt:Q96EB6
- RUN_DESCRIPTION: TAMRA based mass spectrometry assay of SIRT1 activity
- Assay type: biochemical
- TEST_PARAMETERS: TAMRA assay; percent maximum fold activation; read-out: TAMRA % Fold Act
The reader will find reported Emax values listed item by item below.

// known answers, use as guide
{"COMPOUND": "Cc1c(-c2ccccc2Cl)nn2c(NC(=O)c3cccc(N4CCCC4)n3)cnc2c1C [Compound 386]", "Emax": "≥ 350%"}
{"COMPOUND": "N#Cc1ccccc1-c1ccc2ncc(NC(=O)c3nccs3)n2n1 [Compound 335]", "Emax": "< 350%"}
{"COMPOUND": "Cc1cncc(NC(=O)c2cnn3ccc(-c4ccccc4C(F)(F)F)nc23)c1 [Compound 632]", "Emax": "≥ 350%"}
{"COMPOUND": "Cc1nc2c(C)cc(-c3ccccc3C(F)(F)F)nn2c1C(=O)Nc1ccnc(C(C)C)n1 [Compound 730]", "Emax": "≥ 350%"}
{"COMPOUND": "Cc1cc(C)nc(NC(=O)c2cnc3ccc(-c4ccccc4OC[C@H](O)CO)nn23)c1 [Compound 792]", "Emax": "≥ 350%"}
{"COMPOUND": "Cc1cc2ncc(C(=O)Nc3ccncc3)n2nc1-c1ccccc1C(F)(F)F [Compound 223]", "Emax": "≥ 350%"}
{"COMPOUND": "Cc1cc(NC(=O)c2cnc3ccc(-c4ccccc4C(F)(F)F)nn23)nc(C)n1 [Compound 238]", "Emax": "≥ 350%"}
{"COMPOUND": "Cc1cc(NC(=O)c2cnn3ccc(-c4ccccc4OC(F)(F)F)nc23)ccn1 [Compound 612]", "Emax": "≥ 350%"}

Turning now to a further compound:
q: Return value of Emax for input CCOc1ccc(NC(=O)c2c(C)nn3ccc(-c4ccccc4C(F)(F)F)nc23)nn1 [Compound 697] , no commentary.
a: ≥ 350%

###

Form field: Emax (one value per entry).
- MEASURED_ON: UniProt:Q96EB6
- Sequence (Q96EB6 1-747): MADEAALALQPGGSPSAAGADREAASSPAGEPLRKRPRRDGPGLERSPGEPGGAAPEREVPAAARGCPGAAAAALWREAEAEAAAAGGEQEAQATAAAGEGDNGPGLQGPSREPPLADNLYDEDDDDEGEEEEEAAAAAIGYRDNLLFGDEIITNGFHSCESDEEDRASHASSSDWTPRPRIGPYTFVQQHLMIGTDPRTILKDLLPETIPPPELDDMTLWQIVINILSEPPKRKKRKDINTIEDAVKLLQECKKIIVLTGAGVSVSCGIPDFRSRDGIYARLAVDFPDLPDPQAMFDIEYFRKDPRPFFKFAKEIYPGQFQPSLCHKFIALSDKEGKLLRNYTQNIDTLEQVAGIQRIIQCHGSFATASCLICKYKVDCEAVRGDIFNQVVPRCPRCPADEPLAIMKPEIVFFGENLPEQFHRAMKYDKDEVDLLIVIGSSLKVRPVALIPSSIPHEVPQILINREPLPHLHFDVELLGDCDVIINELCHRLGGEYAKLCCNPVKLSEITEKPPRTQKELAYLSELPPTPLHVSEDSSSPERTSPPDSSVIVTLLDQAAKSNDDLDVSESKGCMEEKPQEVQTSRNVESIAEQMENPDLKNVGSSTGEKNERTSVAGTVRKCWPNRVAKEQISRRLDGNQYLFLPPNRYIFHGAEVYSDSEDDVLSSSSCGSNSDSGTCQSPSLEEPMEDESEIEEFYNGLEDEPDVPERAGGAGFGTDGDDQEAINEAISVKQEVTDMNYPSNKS
- RUN_DESCRIPTION: Trp mass spectrometry assay of SIRT1 activity
- Type: biochemical
- TEST_PARAMETERS: Trp peptide substrate; percent maximum fold activation; read-out: Trp % Fold Act

{"COMPOUND": "Cc1nc2ccc(-c3cccc(OC[C@H](O)CO)c3)nn2c1C(=O)Nc1ccncn1", "Emax": "< 350%"}
{"COMPOUND": "Cc1cc(NC(=O)c2cnc3ccc(-c4ccccc4OC(F)(F)F)nn23)nc(C)n1", "Emax": "< 350%"}
{"COMPOUND": "O=C(Nc1cccc(N2CCOCC2)n1)c1cnc2ccc(N3CCC(F)(F)C3)nn12", "Emax": "≥ 350%"}

q: Give Emax for this entry on UniProt:Q96EB6: O=C(Nc1cccc(N2CCOCC2)n1)c1cnc2ccc(N3CCCC(C(F)(F)F)C3)nn12 (stereo not drawn)
a: ≥ 350%

q: Supply Emax measured with UniProt:Q96EB6 for Cc1cc(NC(=O)c2cnc3ccc(-c4ccccc4C(F)(F)F)nn23)cc(OCC(O)CO)n1 (stereo not drawn) .
a: ≥ 350%
